target: Fyn (UniProt P06241); test: phosphorylation enrichment, bacterial display (enrichment ratio); higher = better substrate or ligand; peptides without Tyr show the background;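 further: 11-residue human phosphosite peptides and single-mutation variants displayed on the E. coli surface, counted by deep sequencing, each peptide's frequency after selection divided by its frequency in the unselected input library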;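 further: frequency after pTyr selection over input frequency; kinase dosed for 20-30% of maximal phosphorylation in three min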
Sequence (P06241 whole entry, looked up): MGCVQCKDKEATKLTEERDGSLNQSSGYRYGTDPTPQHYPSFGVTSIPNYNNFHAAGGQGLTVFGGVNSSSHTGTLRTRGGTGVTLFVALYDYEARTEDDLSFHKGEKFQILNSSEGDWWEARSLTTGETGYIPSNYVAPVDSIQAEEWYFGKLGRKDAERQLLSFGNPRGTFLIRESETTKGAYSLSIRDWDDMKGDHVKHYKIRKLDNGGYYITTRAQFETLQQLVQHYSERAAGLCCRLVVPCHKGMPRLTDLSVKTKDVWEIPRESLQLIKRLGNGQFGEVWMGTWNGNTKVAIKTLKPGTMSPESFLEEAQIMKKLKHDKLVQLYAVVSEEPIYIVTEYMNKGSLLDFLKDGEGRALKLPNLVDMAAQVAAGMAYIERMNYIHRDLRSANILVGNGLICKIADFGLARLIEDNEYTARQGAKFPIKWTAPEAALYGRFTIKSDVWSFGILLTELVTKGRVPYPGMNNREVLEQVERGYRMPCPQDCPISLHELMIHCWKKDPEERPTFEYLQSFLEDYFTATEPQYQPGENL
Everything with phosphorylation enrichment lower than 0.5 is no (0); everything else, including exactly 0.5, is yes (1).

{"CHAIN": "SFTDPYAQPSL [KMT2D_Y2378_P2382S_YF]", "STUDY SYSTEM": "Fyn (UniProt P06241)", "ANSWER LABEL": "no (0)"}
{"CHAIN": "VDDEIYFFRKP [PBRM1_Y1289_YF]", "STUDY SYSTEM": "Fyn (UniProt P06241)", "ANSWER LABEL": "yes (1)"}
{"CHAIN": "SSFDTYHLSRE [KIR3DL2_Y253_I252T_YF]", "STUDY SYSTEM": "Fyn (UniProt P06241)", "ANSWER LABEL": "yes (1)"}
{"CHAIN": "FPIDHYLGKEM [G6PD_Y202_R198P_YF]", "STUDY SYSTEM": "Fyn (UniProt P06241)", "ANSWER LABEL": "no (0)"}
{"CHAIN": "FEPDAYDDLDQ [ELP5_Y302_YF]", "STUDY SYSTEM": "Fyn (UniProt P06241)", "ANSWER LABEL": "yes (1)"}
{"CHAIN": "SISLKYEGRVY [ABL1_Y167_R166K]", "STUDY SYSTEM": "Fyn (UniProt P06241)", "ANSWER LABEL": "no (0)"}
{"CHAIN": "RHPFFFAPELL [ALB_Y174_Y174F_YF]", "STUDY SYSTEM": "Fyn (UniProt P06241)", "ANSWER LABEL": "yes (1)"}
{"CHAIN": "DVVKDYAFVHM [RBM14_Y114]", "STUDY SYSTEM": "Fyn (UniProt P06241)", "ANSWER LABEL": "no (0)"}
{"CHAIN": "IMITDYLPLFR [INSR_Y87_L89P]", "STUDY SYSTEM": "Fyn (UniProt P06241)", "ANSWER LABEL": "no (0)"}
{"CHAIN": "KTDVHYRSLGG [DYSF_Y1858]", "STUDY SYSTEM": "Fyn (UniProt P06241)", "ANSWER LABEL": "no (0)"}
{"CHAIN": "SFPPTYRFERG [INPPL1_Y661_YF]", "STUDY SYSTEM": "Fyn (UniProt P06241)", "ANSWER LABEL": "no (0)"}
{"CHAIN": "ESVNTYLQTSP [NAT1_Y208_M205V]", "STUDY SYSTEM": "Fyn (UniProt P06241)", "ANSWER LABEL": "no (0)"}
{"CHAIN": "EVDETYVPKEF [ALB_Y521]", "STUDY SYSTEM": "Fyn (UniProt P06241)", "ANSWER LABEL": "yes (1)"}
{"CHAIN": "LLSVAYQNVVG [YWHAG_Y49_K50Q]", "STUDY SYSTEM": "Fyn (UniProt P06241)", "ANSWER LABEL": "yes (1)"}
{"CHAIN": "TLLERYGMTEI [ACSF3_Y355]", "STUDY SYSTEM": "Fyn (UniProt P06241)", "ANSWER LABEL": "no (0)"}
{"CHAIN": "DFEGLYQEGGG [TMEM159_Y159_E154D]", "STUDY SYSTEM": "Fyn (UniProt P06241)", "ANSWER LABEL": "yes (1)"}
{"CHAIN": "ATPSRYMTFLH [DYNC2H1_Y2872]", "STUDY SYSTEM": "Fyn (UniProt P06241)", "ANSWER LABEL": "no (0)"}
{"CHAIN": "FQCLRYIKQLG [SAMHD1_Y146_R143C]", "STUDY SYSTEM": "Fyn (UniProt P06241)", "ANSWER LABEL": "no (0)"}
{"CHAIN": "RHTRSYDYMEG [FGF7_Y56]", "STUDY SYSTEM": "Fyn (UniProt P06241)", "ANSWER LABEL": "yes (1)"}
{"CHAIN": "LITILYIGFLG [KCNQ1_Y267_T265I]", "STUDY SYSTEM": "Fyn (UniProt P06241)", "ANSWER LABEL": "yes (1)"}
{"CHAIN": "KIKGWYEKCEP [KRT26_Y119]", "STUDY SYSTEM": "Fyn (UniProt P06241)", "ANSWER LABEL": "no (0)"}
{"CHAIN": "RHLQEYQDPLN [GFAP_Y349_L352P]", "STUDY SYSTEM": "Fyn (UniProt P06241)", "ANSWER LABEL": "yes (1)"}
{"CHAIN": "PFQGAYLEINK [MYO1B_Y967]", "STUDY SYSTEM": "Fyn (UniProt P06241)", "ANSWER LABEL": "yes (1)"}
{"CHAIN": "RPFVFYFSFLL [PTEN_Y177_R173P_YF]", "STUDY SYSTEM": "Fyn (UniProt P06241)", "ANSWER LABEL": "yes (1)"}
{"CHAIN": "EDDPEYMRLRN [ADD2_Y31]", "STUDY SYSTEM": "Fyn (UniProt P06241)", "ANSWER LABEL": "yes (1)"}
{"CHAIN": "ARTNEYKIIRS [INA_Y87_T92S]", "STUDY SYSTEM": "Fyn (UniProt P06241)", "ANSWER LABEL": "no (0)"}
{"CHAIN": "LLNPRYNLPLD [TOM1L1_Y109]", "STUDY SYSTEM": "Fyn (UniProt P06241)", "ANSWER LABEL": "yes (1)"}
{"CHAIN": "RAYRRYLLKQK [SCN2A_Y1919]", "STUDY SYSTEM": "Fyn (UniProt P06241)", "ANSWER LABEL": "yes (1)"}
{"CHAIN": "RNGDRYFKEIV [DCX_Y64_G67E]", "STUDY SYSTEM": "Fyn (UniProt P06241)", "ANSWER LABEL": "yes (1)"}
{"CHAIN": "TPSGNYVACGG [GNB1_Y111_A106T]", "STUDY SYSTEM": "Fyn (UniProt P06241)", "ANSWER LABEL": "no (0)"}
{"CHAIN": "CTTIHCNFMCN [TP53_Y234_Y234C_YF]", "STUDY SYSTEM": "Fyn (UniProt P06241)", "ANSWER LABEL": "no (0)"}
{"CHAIN": "HELYVYKSDEN [DOCK3_Y548_C550S]", "STUDY SYSTEM": "Fyn (UniProt P06241)", "ANSWER LABEL": "yes (1)"}
{"CHAIN": "AGQEGYDRLRP [RAC1_Y64_D63G]", "STUDY SYSTEM": "Fyn (UniProt P06241)", "ANSWER LABEL": "no (0)"}
{"CHAIN": "NVADHYGVFKP [ATP6V0D2_Y271_YF]", "STUDY SYSTEM": "Fyn (UniProt P06241)", "ANSWER LABEL": "yes (1)"}
{"CHAIN": "SVTCTGSPALN [TP53_Y126_Y126G]", "STUDY SYSTEM": "Fyn (UniProt P06241)", "ANSWER LABEL": "no (0)"}
{"CHAIN": "FKGKNYKPLDL [RPL35_Y78_K77N_YF]", "STUDY SYSTEM": "Fyn (UniProt P06241)", "ANSWER LABEL": "no (0)"}
{"CHAIN": "RGDTVYTVNRM [KBTBD13_Y404]", "STUDY SYSTEM": "Fyn (UniProt P06241)", "ANSWER LABEL": "yes (1)"}
{"CHAIN": "ISITPYPAILH [IFT80_Y588]", "STUDY SYSTEM": "Fyn (UniProt P06241)", "ANSWER LABEL": "no (0)"}
{"CHAIN": "IKELTYQTEED [MYH7_Y1852]", "STUDY SYSTEM": "Fyn (UniProt P06241)", "ANSWER LABEL": "yes (1)"}
{"CHAIN": "ERSMSYCDESR [SMG1_Y143_S144C]", "STUDY SYSTEM": "Fyn (UniProt P06241)", "ANSWER LABEL": "no (0)"}
{"CHAIN": "CFTRQYTLPPG [HSPB1_Y142_K141Q]", "STUDY SYSTEM": "Fyn (UniProt P06241)", "ANSWER LABEL": "no (0)"}
{"CHAIN": "LFIDSYEKDVA [PGM1_Y521_YF]", "STUDY SYSTEM": "Fyn (UniProt P06241)", "ANSWER LABEL": "yes (1)"}
{"CHAIN": "TKEPKYEGAGS [KIAA1210_Y1615]", "STUDY SYSTEM": "Fyn (UniProt P06241)", "ANSWER LABEL": "no (0)"}
{"CHAIN": "DHPSEYAARQL [ANXA13_Y90_R86H]", "STUDY SYSTEM": "Fyn (UniProt P06241)", "ANSWER LABEL": "no (0)"}
{"CHAIN": "VSLLPYFPAIM [IPO4_Y518_A513V]", "STUDY SYSTEM": "Fyn (UniProt P06241)", "ANSWER LABEL": "yes (1)"}
{"CHAIN": "NHFKIYNLFAE [PTEN_Y68_C71Y_YF]", "STUDY SYSTEM": "Fyn (UniProt P06241)", "ANSWER LABEL": "yes (1)"}
{"CHAIN": "NYSKMYCNPDA [KNL1_Y489_A486S]", "STUDY SYSTEM": "Fyn (UniProt P06241)", "ANSWER LABEL": "no (0)"}
{"CHAIN": "WDLSEYSFKDP [ITGA3_Y237_YF]", "STUDY SYSTEM": "Fyn (UniProt P06241)", "ANSWER LABEL": "yes (1)"}
{"CHAIN": "AHPIIYTIIEA [PYKtide_no-pT_2014]", "STUDY SYSTEM": "Fyn (UniProt P06241)", "ANSWER LABEL": "yes (1)"}
{"CHAIN": "KNNSIYVVANI [VNN1_Y134]", "STUDY SYSTEM": "Fyn (UniProt P06241)", "ANSWER LABEL": "yes (1)"}
{"CHAIN": "IKAGAYDFPSL [CAMK2A_Y230_P235L]", "STUDY SYSTEM": "Fyn (UniProt P06241)", "ANSWER LABEL": "yes (1)"}
{"CHAIN": "WQQQSYLGSGI [CTNNB1_Y30_D32G]", "STUDY SYSTEM": "Fyn (UniProt P06241)", "ANSWER LABEL": "no (0)"}
{"CHAIN": "LKEIRYPPYTD [ALDH3B2_Y362_H361R]", "STUDY SYSTEM": "Fyn (UniProt P06241)", "ANSWER LABEL": "no (0)"}
